Test system: NCI-H460 lung
Field 'call' accepts TRUE (active), FALSE (inactive)

These recorded examples may help you get a feel for the data.
stdin: Hey, what did the test say about NCCCCCCCn1c2c(c3ccccc3c1=O)C(=O)c1ccccc1-2 ?
stdout: FALSE

stdin: Hey, what did the test say about CC(=O)C1=C(O)C=C2Oc3c(C(=O)/C=C/c4c(Cl)cccc4Cl)c(O)c(C)c(O)c3[C@]2(C)C1=O ?
stdout: FALSE

stdin: Hey, what did the test say about S=C(Nc1ccc(-c2nc3ccccc3[nH]2)cc1)Nc1ccc(-c2nc3ccccc3[nH]2)cc1 ?
stdout: FALSE

stdin: Hey, what did the test say about O=C(Nc1ccncc1)C(=O)c1cn(S(=O)(=O)c2ccc(Cl)cc2)c2ccccc12 ?
stdout: FALSE

stdin: Hey, what did the test say about C=C1CCC2C3(C)COC(c4ccccc4)OC3CCC2(C)C1/C=C/C1=CCOC1=O (stereo not given) ?
stdout: FALSE

stdin: Hey, what did the test say about Cc1csc(/C=C/C(=O)c2nnn(-c3ccnc4c(C(F)(F)F)cccc34)c2C)c1 ?
stdout: FALSE

stdin: Hey, what did the test say about O=C(c1ccccc1)C(CN1CCCCC1)c1ccccc1 (stereo not given) ?
stdout: FALSE

stdin: Hey, what did the test say about CC(C)([NH-])CO.CC(C)([NH-])CO.[Cl][Cd][Cl] ?
stdout: FALSE

***
stdin: Hey, what did the test say about c1ccc(CN2COc3c(ccc4c3OCN(Cc3ccccc3)C4)C2)cc1 ?
stdout: TRUE

stdin: Hey, what did the test say about COC(=O)c1cc(O)c2cc3c(cc2c1-c1cc(OC)c(OC)c(OC)c1)OCO3 ?
stdout: FALSE

stdin: Hey, what did the test say about Cc1cc(N2CCOCC2)nc(N[C@@H]2CCC[C@H](Nc3ccnc4cc(Cl)ccc34)C2)n1 ?
stdout: FALSE

stdin: Hey, what did the test say about COc1cccc(NC(=O)c2sc3nc(C)c(C(O)c4ccccc4)cc3c2N)c1 (stereo not given) ?
stdout: TRUE

stdin: Hey, what did the test say about C=CC(=O)Nc1cc(C)ccc1Nc1nc(Nc2cc(OC)ncc2C)ncc1C(F)(F)F ?
stdout: FALSE

stdin: Hey, what did the test say about COCc1cc(C(=O)Nc2cc([C@H]3CC[C@@H](OC(=O)NC(C)C)C3)[nH]n2)n(C)n1 ?
stdout: FALSE

stdin: Hey, what did the test say about O=C(O)C1(C(=O)O)CCC1.[NH2-].[NH2-].[Pt+2] ?
stdout: FALSE

stdin: Hey, what did the test say about O=C(Cc1ccc(F)c(F)c1)Nc1cc(C2(C(F)(F)F)CC2)nn1Cc1ccccc1 ?
stdout: FALSE

stdin: Hey, what did the test say about O=c1cc(-c2cccc3c2Sc2ccccc2S3)oc(N2CCOCC2)c1 ?
stdout: FALSE

stdin: Hey, what did the test say about CO/N=C(\C)c1ccc(Nc2cc(-c3ccccc3)nc3ccc(OC)cc23)cc1 ?
stdout: FALSE

stdin: Hey, what did the test say about O=C(NCCCO)c1cc(Cl)ccc1O ?
stdout: FALSE

stdin: Hey, what did the test say about C[As](C)SCC(COC(=O)C(Cl)c1ccccc1)OC(=O)C(Cl)c1ccccc1 (stereo not given) ?
stdout: FALSE
